Assay: Cmax in BALB/c mouse
Type: ADME, organism-based
Conditions: in vivo
Readout Label: Cmax (ng/mL)

[[record]]
compound = "CCN(CC)CC.Nc1ncnc2c1ncn2[C@@H]1O[C@H](COS(=O)(=O)NC(=O)c2ccccc2O)[C@@H](O)[C@H]1O"
uom = "ng/mL"
result_number = 1200


###

clearance: recorded values
Test: Clearance in Sprague-Dawley rat at 2.5 mg/kg, iv by LC-MS/MS method
Type: ADME, organism-based
Conditions: in vivo
Readout Label: clearance (mL/min/kg)

[[record]]
compound = "CCN(CC)CC.O=C(NS(=O)(=O)NC[C@H]1O[C@@H](n2cnc3c(NC4CC4)nc(-c4ccccc4)nc32)[C@H](O)[C@@H]1O)c1ccccc1O"
readout_label = "clearance"
result_number = 13.6

[[record]]
compound = "CCN(CC)CC.Nc1ncnc2c1ncn2[C@@H]1O[C@H](CNS(=O)(=O)NC(=O)c2ccccc2O)C[C@H]1F"
readout_label = "clearance"
result_number = 2.6

[[record]]
compound = "CCN(CC)CC.Nc1ncnc2c1ncn2[C@@H]1O[C@H](CNS(=O)(=O)NC(=O)c2ccccc2O)[C@@H](O)[C@H]1O"
readout_label = "clearance"
result_number = 8.4

[[record]]
compound = "CCN(CC)CC.O=C(NS(=O)(=O)NC[C@H]1O[C@@H](n2cnc3c(NC4CC4)ncnc32)[C@H](O)[C@@H]1O)c1ccccc1O"
readout_label = "clearance"
result_number = 9.6


###

Assay: Stability in pH 12 buffer solutions assessed as compound degradation after 24 hrs at 37 degC
Format: physicochemical
Details: read-out: Drug degradation
Readout Label: degraded at 24 h

[[record]]
compound = "CCN(CC)CC.Nc1ncnc2c1ncn2[C@@H]1O[C@H](COS(=O)(=O)NC(=O)c2ccccc2O)[C@@H](O)[C@H]1O"
result = "< 5%"


###

Test system: Rattus norvegicus
Assay: Oral bioavailability in Sprague-Dawley rat at 25 mg/kg by LC-MS/MS method
Assay type: ADME, organism-based
Details: in vivo
// F lookup, one value per entry
Readout Label: F

[[record]]
compound = "CCN(CC)CC.Nc1ncnc2c1ncn2[C@@H]1O[C@H](CNS(=O)(=O)NC(=O)c2ccccc2O)C[C@H]1F"
experimental_target = "Rattus norvegicus"
result = "2%"

[[record]]
compound = "NNC(=O)c1ccncc1 [ISONIAZID]"
experimental_target = "Rattus norvegicus"
result = "65%"

[[record]]
compound = "CCN(CC)CC.Nc1nc(-c2ccccc2)nc2c1ncn2[C@@H]1O[C@H](CNS(=O)(=O)NC(=O)c2ccccc2O)[C@@H](O)[C@H]1F"
experimental_target = "Rattus norvegicus"
result = "0.8%"

[[record]]
compound = "CCN(CC)CC.Nc1ccc(C(=O)NS(=O)(=O)NC[C@H]2O[C@@H](n3cnc4c(N)ncnc43)[C@H](O)[C@@H]2O)c(O)c1"
experimental_target = "Rattus norvegicus"
result = "3.7%"

[[record]]
compound = "CCN(CC)CC.Nc1ncnc2c1ncn2[C@@H]1O[C@H](CNS(=O)(=O)NC(=O)c2ccccc2O)[C@@H](O)[C@H]1F"
experimental_target = "Rattus norvegicus"
result = "1.8%"


###

Assay: Clearance in Sprague-Dawley rat at 2.5 mg/kg, iv by LC-MS/MS method
Type: ADME, organism-based
Settings: in vivo
Readout Label: clearance (L/h/kg)

[[record]]
compound = "CCN(CC)CC.Nc1ccc(C(=O)NS(=O)(=O)NC[C@H]2O[C@@H](n3cnc4c(N)ncnc43)[C@H](O)[C@@H]2O)c(O)c1"
result_number = 2.78

[[record]]
compound = "CCN(CC)CC.Nc1ncnc2c1ncn2[C@@H]1O[C@H](COS(=O)(=O)NC(=O)c2ccccc2O)[C@@H](O)[C@H]1O"
result_number = 0.294

[[record]]
compound = "CCN(CC)CC.Nc1ncnc2c1ncn2[C@@H]1O[C@H](CNS(=O)(=O)NC(=O)c2ccccc2O)[C@@H](O)[C@H]1F"
result_number = 0.15

[[record]]
compound = "CCN(CC)CC.Nc1nc(-c2ccccc2)nc2c1ncn2[C@@H]1O[C@H](CNS(=O)(=O)NC(=O)c2ccccc2O)[C@@H](O)[C@H]1F"
result_number = 0.078


Where these numbers come from: ChEMBL document CHEMBL3588789
